Data credit: patent WO2009150539A2

ASSAYED_TARGET: AahI' toxin of Androctonus australis hector (Androctonus australis hector) (UniProt P01479)
Sequence (P01479 20-82): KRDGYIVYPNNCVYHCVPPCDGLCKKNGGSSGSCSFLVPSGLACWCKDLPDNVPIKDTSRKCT
ASSAY_EXPLANATION: cell-based or functional assay
MEASURED_PARAMETER: surviving mice; i.c.v.; 4 LD50 AahI'; ratio 1:2 (survivors of 4 mice)
The answer should be a number; do not append a unit.

INSERT INTO results (binder, recorded_number) VALUES
  ('AahI''B23 (VHH) VHH: QVQLQESGGGSVQAGGSLRLSCAASGYQQTGYCMGWFRQAPGKEREGVAVIKTFYAGTVYADSVKGRFTISQDIAKNTVYLQMNSLQPEDTAMYYCAITGGPWNGRCPLTSQAFRYWGQGTQVTVSS', 0),
  ('AahI''C14 (VHH) VHH: QVQLQESGGGSVQAEGSLRLSCTVSGLTSSSNYVGWFRQAPGKEREGVATIGPYTRNTRYADSVNGRFTISLDNAKSTLYLQMNGLKPEDTAIYYCAAGKTTWIRALRSDDYKYWGQGTQVTVSS', 0),
  ('AahI''A3 (VHH) VHH: QVQLQESGGGSVQAGGSLRLSCAASGFTFRSPYCMGWFRQAPGKEREAVAAIKTYYAGTVYADSMKGRFTITQDIAKNTVYLQMNSLKPEDTATYYCAATGGPYNGRCPLTSQPFPNWGQGTQVTVSS', 4);

Given the binder AahI'A17 (VHH) VHH: QVQLQESGGGSVQDGGSLTLSCAASSSYVFNNLNMGWFRQAPGKECELVSTLFVNGITNYADSVKGRFTVSRDNAKNTVFLHMTNLSTEDTAVYYCAAPDVCSATRCGPACRGQGTQVTVSS , what is its reported surviving mice; i.c.v.; 4 LD50 AahI'; ratio 1:2 (survivors of 4 mice)?
4
